biological target: purified recombinant IDO1 (Homo sapiens, UniProt P14902); construct: Full-length human IDO1 gene was cloned into the pET-28a vector; inferred from pET-28a vector and HisTrap purification; made in house; host or cells: E. coli Rosetta (DE3); test: Enzymatic IDO1 inhibition assay (ascorbate/methylene blue reduction system, HPLC detection of kynurenine); type: biochemical; conditions: enzymatic; L-Trp 100 µM, 0.01% Triton X-100, 5% DMSO, 20 min at room temperature, pH 6.5; duplicates; read-out: IC50 [ μ M] (SD)
Sequence (P14902 whole entry): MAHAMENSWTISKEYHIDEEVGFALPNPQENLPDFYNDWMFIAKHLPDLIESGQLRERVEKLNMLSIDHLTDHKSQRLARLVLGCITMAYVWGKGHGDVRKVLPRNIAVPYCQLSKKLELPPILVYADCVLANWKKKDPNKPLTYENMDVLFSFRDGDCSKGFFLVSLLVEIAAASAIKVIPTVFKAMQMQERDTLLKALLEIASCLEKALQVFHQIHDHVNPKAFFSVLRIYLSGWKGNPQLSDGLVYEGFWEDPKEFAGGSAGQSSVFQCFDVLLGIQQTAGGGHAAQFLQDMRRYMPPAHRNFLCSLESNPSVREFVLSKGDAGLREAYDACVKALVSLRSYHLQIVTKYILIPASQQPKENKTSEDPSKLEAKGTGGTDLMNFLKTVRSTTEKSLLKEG
pIC50: −log10 of the molar value.
Readout name: pIC50

1) Clc1ccc(-c2c[nH]nn2)c(Cl)c1	4.51
2) COc1cccc(C(=O)c2cnn[nH]2)c1	3.00
3) O=C(c1ccncc1)c1cnn[nH]1	2.92
4) Cc1c(Br)ccc(N)c1-c1nc[nH]n1	4.20
5) Nc1ccsc1-c1nc[nH]n1	5.00
6) Clc1cccc(-c2c[nH]nn2)c1OCCc1ccccc1	4.51
7) O=C(c1cnn[nH]1)c1ccc(Cl)cc1O	4.96
8) Nc1cccc(N)c1-c1nc[nH]n1	4.51
9) Oc1ccc(F)cc1-c1cnn[nH]1	6.85
10) Oc1ccc(Cc2ccccc2)cc1-c1cnn[nH]1	4.06
11) O=C(c1ccc(Br)cc1)c1cnn[nH]1	4.89
12) O=C(c1ccoc1)c1cnn[nH]1	4.80
13) O=C(c1cnn[nH]1)c1ccco1	3.64

====

Below, each entry is listed alongside its reported Tox. [%].
tested on: HEK 293 T cells; assay: Cell viability / cellular toxicity (DAPI staining, cytometry); assay type: cell-based, human; details: compound 200 µM, 7 h
Readout name: Tox. [%]

1. Nc1c(F)cccc1-c1nc[nH]n1	17 (3) %
2. CCC(=O)Nc1ccc(Cl)cc1-c1nc[nH]n1	16 (1) %
3. CC(=O)Nc1ccc(Cl)cc1-c1nc[nH]n1	0 (0) %
4. Nc1c(Cl)cccc1-c1nc[nH]n1	13 (4) %
5. Nc1cc(F)c(Br)cc1-c1nc[nH]n1	17 (2) %
6. CNc1ccc(Cl)cc1-c1nc[nH]n1	0 (0) %
7. O=C(c1cnn[nH]1)c1cc(Cl)ccc1O	0 (0) %
8. O=C(c1ccc(Br)cc1)c1cnn[nH]1	0 (0) %
9. O=C(c1cnn[nH]1)c1ccccc1O	0 (0) %
10. O=C(c1cnn[nH]1)c1ccc(Br)cc1O	0 (0) %
11. Nc1ccc(F)cc1-c1nc[nH]n1	18 (0.5) %
12. O=C(c1ccsc1)c1cnn[nH]1	0 (0) %
13. Nc1cccc(N)c1-c1nc[nH]n1	11 (0.4) %
14. O=C(c1cccnc1)c1cnn[nH]1	0 (0) %
15. O=C(c1ccoc1)c1cnn[nH]1	0 (0) %
16. Brc1ccc(Nc2c[nH]nn2)cc1 [Compound 78, N-(4-Bromophenyl)-1,2,3-triazol-4-amine, reference compound]	0 (0) %

====

biological target: purified recombinant IDO1 (Homo sapiens); construct: Full-length human IDO1 gene was cloned into the pET-28a vector; inferred from pET-28a vector and HisTrap purification; made in house; host or cells: E. coli Rosetta (DE3); assay: Enzymatic IDO1 inhibition assay (ascorbate/methylene blue reduction system, HPLC detection of kynurenine); assay type: biochemical; settings: IC50 [ μ M] (SD), enzymatic; L-Trp 100 µM, 0.01% Triton X-100, 5% DMSO, 20 min at room temperature, pH 6.5; duplicates
Readout name: IC50

1. c1ccc(-c2nnc[nH]2)nc1 [Compound 159, 2-(1H-1,2,4-Triazol-3-yl)pyridine]	> 1000 µM
2. Cc1cccc2sc3nncn3c12 [Compound 167, tryclazole, reference compound]	> 1000 µM

====

Below, each entry is listed alongside its reported melting point.
Readout name: melting point

1) Cc1c(Cl)ccc(N)c1-c1nc[nH]n1	208 to 210 °C
2) O=C(Nc1ccc(Cl)cc1-c1nc[nH]n1)C1CC1	183 to 186 °C
3) Clc1cc(Cl)c(-c2c[nH]nn2)c(Cl)c1	236 to 238 °C
4) c1ccc(CCNc2ccccc2-c2cnn[nH]2)cc1	129 to 132 °C
5) Oc1ccc(Cc2ccccc2)cc1-c1cnn[nH]1	148 to 151 °C
6) Nc1cc(F)c(Br)cc1-c1nc[nH]n1	243 to 246 °C
7) O=C(Nc1ccc(Cl)cc1-c1nc[nH]n1)C1CCCC1	197 to 199 °C
8) CNc1ccc(Cl)cc1-c1nc[nH]n1	207 to 209 °C

====

target: purified recombinant IDO1 (Homo sapiens); construct: Full-length human IDO1 gene was cloned into the pET-28a vector; inferred from pET-28a vector and HisTrap purification; made in house; host or cells: E. coli Rosetta (DE3); test: Enzymatic IDO1 inhibition assay (ascorbate/methylene blue reduction system, HPLC detection of kynurenine); format: biochemical; conditions: ligand efficiency, LE = -RT log(IC50)/number of heavy atoms, from enzymatic IC50
Below, each entry is listed alongside its reported LE [kcal/mol/HA].
Readout name: LE [kcal/mol/HA]

1. Nc1cccc(N)c1-c1nc[nH]n1 [Compound 142]	0.47 kcal/mol/HA
2. Nc1ccc(Cl)c(N)c1-c1nc[nH]n1 [Compound 157]	0.55 kcal/mol/HA
3. Oc1ccccc1-c1cnn[nH]1 [Compound 29]	0.64 kcal/mol/HA
4. Cc1c(Br)ccc(N)c1-c1nc[nH]n1 [Compound 155]	0.41 kcal/mol/HA
5. O=C(c1cnn[nH]1)c1cccs1 [Compound 116]	0.54 kcal/mol/HA
6. Oc1ccccc1-n1cncn1 [Compound 171]	0.52 kcal/mol/HA
7. O=C(c1csnn1)c1cnn[nH]1 [Compound 119]	0.37 kcal/mol/HA
8. c1ccc(Sc2c[nH]nn2)cc1 [Compound 83, 4-(Phenylthio)-1,2,3-triazole]	0.37 kcal/mol/HA
9. Clc1ccc(-c2c[nH]nn2)c(Cl)c1 [Compound 48, 4–(2,4-Dichlorophenyl)-1,2,3-triazole]	0.47 kcal/mol/HA
10. CCc1ccc(O)c(-c2cnn[nH]2)c1 [Compound 36, 4-Ethyl-2-(1H-1,2,3-triazol-5-yl)phenol]	0.64 kcal/mol/HA
11. Clc1cc(Cl)c(-c2c[nH]nn2)cc1Cl [Compound 52, 4–(2,4,5-Trichlorophenyl)-1,2,3-triazole]	0.44 kcal/mol/HA
12. Clc1ccc(Cl)c(-c2cnn[nH]2)c1 [Compound 46]	0.54 kcal/mol/HA
13. Nc1ccc(F)cc1-c1nc[nH]n1 [Compound 143]	0.72 kcal/mol/HA
14. Nc1cc(F)c(Br)cc1-c1nc[nH]n1 [Compound 144]	0.73 kcal/mol/HA
15. O=C(c1ccsc1)c1cnn[nH]1 [Compound 117]	0.47 kcal/mol/HA
16. Clc1cccc(-c2cnn[nH]2)c1CCc1ccccc1 [Compound 13]	0.33 kcal/mol/HA
17. Clc1cncc(-c2nc[nH]n2)n1 [Compound 162]	0.41 kcal/mol/HA
18. N#Cc1[nH]nnc1-c1ccccc1 [Compound 62]	0.34 kcal/mol/HA
19. CC(C)c1cccc(-c2c[nH]nn2)c1 [Compound 23, 4–(3-Isopropylphenyl)-1,2,3-triazole]	0.35 kcal/mol/HA
20. Cc1[nH]nnc1-c1cc(Cl)ccc1O [Compound 68]	0.36 kcal/mol/HA
21. Nc1ccc(Br)cc1-c1nnc[nH]1 [Compound 12]	0.80 kcal/mol/HA
22. Oc1ccc(CCc2ccccc2)cc1-c1cnn[nH]1 [Compound 39]	0.26 kcal/mol/HA
23. O=C(c1ccccc1)c1cnn[nH]1 [Compound 99, Phenyl(1H-1,2,3-triazol-5-yl)methanone]	0.35 kcal/mol/HA
24. O=C(Nc1ccc(Cl)cc1-c1nc[nH]n1)C1CC1 [Compound 149]	0.48 kcal/mol/HA
25. Clc1ccc(-c2c[nH]nn2)cc1Cl [Compound 49, 4–(3,4-Dichlorophenyl)-1,2,3-triazole]	0.45 kcal/mol/HA
26. Clc1cccc(-c2cnn[nH]2)c1/C=C/c1ccccc1 [Compound 41]	0.29 kcal/mol/HA
27. Brc1ccc(Nc2c[nH]nn2)cc1 [Compound 78, N-(4-Bromophenyl)-1,2,3-triazol-4-amine, reference compound]	0.45 kcal/mol/HA
28. Cc1ccc(O)c(-c2cnn[nH]2)c1 [Compound 35, 4-Methyl-2-(1H-1,2,3-triazol-5-yl)phenol]	0.66 kcal/mol/HA
29. CC(=O)Nc1ccc(Cl)cc1-c1nc[nH]n1 [Compound 146]	0.29 kcal/mol/HA
30. c1ccc(-n2cncn2)cc1 [Compound 170, 1-phenyl-1,2,4-triazole]	0.38 kcal/mol/HA
31. Oc1ccc(F)cc1-c1cnn[nH]1 [Compound 34, 4-Fluoro-2-(1H-1,2,3-triazol-5-yl)phenol]	0.72 kcal/mol/HA
32. Oc1cccc(O)c1-c1cnn[nH]1 [Compound 44]	0.51 kcal/mol/HA
33. O=C(c1ccc(F)cc1)c1cnn[nH]1 [Compound 110]	0.36 kcal/mol/HA
34. Fc1cccc(-c2nc[nH]n2)c1 [Compound 137, 3–(3-Fluorophenyl)-1H-1,2,4-triazole]	0.43 kcal/mol/HA
35. Clc1cccc(-c2cnn[nH]2)c1/C=C/C1CCCCC1 [Compound 42]	0.24 kcal/mol/HA
36. O=C(c1cnn[nH]1)c1ccco1 [Compound 114]	0.41 kcal/mol/HA
37. CCCC(=O)Nc1ccc(Cl)cc1-c1nc[nH]n1 [Compound 148]	0.35 kcal/mol/HA
38. Nc1ccc(Cl)cc1-c1nnc[nH]1 [Compound 11]	0.78 kcal/mol/HA
39. Clc1cccc(Cl)c1-c1c[nH]nn1 [Compound 51, 4–(2,6-Dichlorophenyl)-1,2,3-triazole]	0.37 kcal/mol/HA

Sourced from paper PMC9246256
